- ASSAY SYSTEM: UniProtKB P35348
pKi: −log10 of the molar value.
READOUT: pKi

(a) COCC1=C(C(=O)OC)[C@H](c2ccc(F)c(F)c2)N(C(=O)N[C@H]2CC[C@@H](N3CCC(C#N)(c4ccccc4)CC3)C2)C(=O)N1
(b) COCC1=C(C(=O)OC)[C@H](c2ccc(F)c(F)c2)N(C(=O)N[C@@H]2CC[C@@H](N3CCC(c4ccccc4C#N)CC3)C2)C(=O)N1
(c) COCC1=C(C(=O)OC)[C@H](c2ccc(F)c(F)c2)N(C(=O)N[C@@H]2CC[C@H](N3CCC(C#N)(c4ccccc4)CC3)C2)C(=O)N1
Please rank everything listed above by pKi, with the minimum value first. Give me the labels in the order the question wants.
a, c, b

###

- ASSAY SYSTEM: Alpha-1B adrenergic receptor (Homo sapiens, UniProt P35368)
- Sequence (P35368 whole entry): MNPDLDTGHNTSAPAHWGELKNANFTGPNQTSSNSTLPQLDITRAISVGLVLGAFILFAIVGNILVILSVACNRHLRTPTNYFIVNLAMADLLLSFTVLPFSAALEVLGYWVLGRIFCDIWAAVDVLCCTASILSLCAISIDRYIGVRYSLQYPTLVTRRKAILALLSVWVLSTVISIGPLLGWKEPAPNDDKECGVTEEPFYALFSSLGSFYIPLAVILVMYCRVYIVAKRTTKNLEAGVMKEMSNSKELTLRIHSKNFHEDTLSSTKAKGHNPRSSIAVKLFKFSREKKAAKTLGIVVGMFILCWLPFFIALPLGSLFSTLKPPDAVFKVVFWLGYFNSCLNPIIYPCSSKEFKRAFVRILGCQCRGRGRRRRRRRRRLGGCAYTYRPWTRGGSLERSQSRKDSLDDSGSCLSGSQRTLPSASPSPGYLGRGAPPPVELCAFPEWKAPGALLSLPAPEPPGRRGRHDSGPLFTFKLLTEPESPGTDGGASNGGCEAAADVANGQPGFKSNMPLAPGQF
READOUT: Ki (nM)

These solved cases illustrate the format of a correct answer.
- SMILES TEXT: "COCC1=C(C(=O)OC)[C@H](c2ccc(F)c(F)c2)N(C(=O)N[C@@H]2CC[C@@H](N3CCC(c4ccccn4)CC3)C2)C(=O)N1"
  ASSAY SYSTEM: "Alpha-1B adrenergic receptor (Homo sapiens, UniProt P35368)"
  TEST RESULT: 350
- SMILES TEXT: "COCC1=C(C(=O)OC)[C@H](c2ccc(F)c(F)c2)N(C(=O)N[C@H]2CC[C@@H](N3CCC(C#N)(c4ccccc4)CC3)C2)C(=O)N1"
  ASSAY SYSTEM: "Alpha-1B adrenergic receptor (Homo sapiens, UniProt P35368)"
  TEST RESULT: 730
- SMILES TEXT: "COCC1=C(C(=O)OC)[C@H](c2ccc(F)c(F)c2)N(C(=O)N[C@H]2CC[C@H](N3CCC(C#N)(c4ccccc4)CC3)C2)C(=O)N1"
  ASSAY SYSTEM: "Alpha-1B adrenergic receptor (Homo sapiens, UniProt P35368)"
  TEST RESULT: 120
- SMILES TEXT: "COCC1=C(C(=O)OC)[C@H](c2ccc(F)c(F)c2)N(C(=O)N[C@H]2CC[C@@H](N3CCC(c4ccccc4C#N)CC3)C2)C(=O)N1"
  ASSAY SYSTEM: "Alpha-1B adrenergic receptor (Homo sapiens, UniProt P35368)"
  TEST RESULT: 70
- SMILES TEXT: "COCC1=C(C(=O)OC)[C@H](c2ccc(F)c(F)c2)N(C(=O)N[C@H]2CC[C@H](N3CCC(c4ccccn4)CC3)C2)C(=O)N1"
  ASSAY SYSTEM: "Alpha-1B adrenergic receptor (Homo sapiens, UniProt P35368)"
  TEST RESULT: 130

(a) COCC1=C(C(=O)OC)[C@H](c2ccc(F)c(F)c2)N(C(=O)N[C@H]2CC[C@@H](N3CCN(c4ccccc4C#N)CC3)C2)C(=O)N1
(b) COCC1=C(C(=O)OC)[C@H](c2ccc(F)c(F)c2)N(C(=O)N[C@@H]2CC[C@@H](N3CCN(c4ccccc4C#N)CC3)C2)C(=O)N1
// compare: a vs b , metric Ki, want the smaller Return value: the label identifying the chosen record.
b

###

Target protein (sequence): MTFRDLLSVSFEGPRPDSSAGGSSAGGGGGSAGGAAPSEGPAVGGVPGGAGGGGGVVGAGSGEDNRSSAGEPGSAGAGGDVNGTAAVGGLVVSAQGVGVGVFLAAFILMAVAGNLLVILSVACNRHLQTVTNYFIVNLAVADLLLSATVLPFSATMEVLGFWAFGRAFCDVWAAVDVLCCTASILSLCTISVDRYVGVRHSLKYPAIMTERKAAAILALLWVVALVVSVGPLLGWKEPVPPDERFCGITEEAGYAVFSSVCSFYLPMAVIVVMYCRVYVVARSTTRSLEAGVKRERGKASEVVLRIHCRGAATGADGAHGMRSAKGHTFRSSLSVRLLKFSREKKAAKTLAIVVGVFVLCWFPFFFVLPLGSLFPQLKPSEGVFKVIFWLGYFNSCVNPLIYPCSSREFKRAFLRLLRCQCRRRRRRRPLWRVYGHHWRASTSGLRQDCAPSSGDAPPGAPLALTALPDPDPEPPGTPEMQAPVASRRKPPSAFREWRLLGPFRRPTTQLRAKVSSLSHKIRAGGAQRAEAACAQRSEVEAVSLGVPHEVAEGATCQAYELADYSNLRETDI
pKi: −log10 of the molar value.
READOUT: pKi

These solved cases illustrate the format of a correct answer.
- SMILES TEXT: "COCC1=C(C(=O)OC)[C@H](c2ccc(F)c(F)c2)N(C(=O)N[C@@H]2CC[C@@H](N3CCN(c4ccccc4C#N)CC3)C2)C(=O)N1"
  READOUT: "pKi"
  TEST RESULT: 8.27
- SMILES TEXT: "COCC1=C(C(=O)OC)[C@H](c2ccc(F)c(F)c2)N(C(=O)N[C@@H]2CC[C@@H](N3CCC(C#N)(c4ccccc4)CC3)C2)C(=O)N1"
  READOUT: "pKi"
  TEST RESULT: 6.18
- SMILES TEXT: "COCC1=C(C(=O)OC)[C@H](c2ccc(F)c(F)c2)N(C(=O)N[C@H]2CC[C@H](N3CCC(c4ccccc4C#N)CC3)C2)C(=O)N1"
  READOUT: "pKi"
  TEST RESULT: 7.96
- SMILES TEXT: "COCC1=C(C(=O)OC)[C@H](c2ccc(F)c(F)c2)N(C(=O)N[C@@H]2CC[C@@H](N3CCC(c4ccccn4)CC3)C2)C(=O)N1"
  READOUT: "pKi"
  TEST RESULT: 6.30

(1) COCC1=C(C(=O)OC)[C@H](c2ccc(F)c(F)c2)N(C(=O)N[C@@H]2CC[C@H](N3CCC(C#N)(c4ccccc4)CC3)C2)C(=O)N1
(2) COCC1=C(C(=O)OC)[C@H](c2ccc(F)c(F)c2)N(C(=O)N[C@H]2CC[C@H](N3CCC(C#N)(c4ccccc4)CC3)C2)C(=O)N1
(3) COCC1=C(C(=O)OC)[C@H](c2ccc(F)c(F)c2)N(C(=O)N[C@@H]2CC[C@H](N3CCN(c4ccccc4C#N)CC3)C2)C(=O)N1
(4) COCC1=C(C(=O)OC)[C@H](c2ccc(F)c(F)c2)N(C(=O)N[C@@H]2CC[C@H](N3CCC(c4ccccn4)CC3)C2)C(=O)N1
(5) COCC1=C(C(=O)OC)[C@H](c2ccc(F)c(F)c2)N(C(=O)N[C@@H]2CC[C@H](N3CCC(c4ccccc4C#N)CC3)C2)C(=O)N1
Please rank these molecules by pKi in descending order. Give me the labels in the order the question wants.
3, 5, 2, 4, 1

###

Test system Alpha-1A adrenergic receptor (Homo sapiens, UniProt P35348), Ki listed for each of the compounds.
READOUT: Ki (nM)

- SMILES TEXT: "COCC1=C(C(=O)OC)[C@H](c2ccc(F)c(F)c2)N(C(=O)N[C@H]2CC[C@H](N3CCC(C#N)(c4ccccc4)CC3)C2)C(=O)N1"
  Ki (nM): 2.3

(A) COCC1=C(C(=O)OC)[C@H](c2ccc(F)c(F)c2)N(C(=O)N[C@H]2CC[C@H](N3CCC(c4ccccc4C#N)CC3)C2)C(=O)N1
(B) COCC1=C(C(=O)OC)[C@H](c2ccc(F)c(F)c2)N(C(=O)N[C@@H]2CC[C@H](N3CCN(c4ccccc4C#N)CC3)C2)C(=O)N1
(C) COCC1=C(C(=O)OC)[C@H](c2ccc(F)c(F)c2)N(C(=O)N[C@@H]2CC[C@@H](N3CCC(C#N)(c4ccccc4)CC3)C2)C(=O)N1
Please rank these compounds by Ki in descending order. Give me the labels in the order the question wants.
A, B, C
(A: 2.4 nM, B: 1.6 nM, C: 0.37 nM)
